test: Caco-2 cell monolayers intrinsic permeation assay in the presence of efflux inhibitors; assay type: in vitro ADME; conditions: Caco-2, with efflux inhibitors
attributeMeasured: Papp A→B (×10⁻⁶ cm/s)
Unit ×10⁻⁶ cm/s implied. Number only.

molecule	attributeMeasured	number
CCN(C(=O)c1cc(F)ccc1-n1cc(C(=O)C2CCN(C(=O)[C@H]3NC[C@@H]4C[C@@H]43)CC2)c2ccncc21)C(C)C	Papp A→B	1.1
Cc1c(C(=O)C2CCN(C(=O)[C@@H]3CCC(C)(C)N3)CC2)c2ccncc2n1-c1ccc(F)cc1C(=O)N(C(C)C)C(C)C (single isomer, unassigned)	Papp A→B	2.8

Next up:
Exercise: Output Papp A→B of Cc1c(C(=O)[C@@H]2CCN(C(=O)[C@H]3NC[C@@H]4C[C@@H]43)[C@@H](C)C2)c2ccncc2n1-c1ccc(F)cc1C(=O)N(CC(F)(F)F)C(C)C (single isomer, unassigned)
Solution: 3.6

###

biological target: UniProtKB P08172
pKi: −log10 of the molar value.
Please mark 1 if the recorded pKi is equal to or greater than 6, and 0 if it falls below.

Some solved entries appear below for comparison.
>>> df
                                   molecule        testtarget  label
0  Cc1c(C(=O)C2CCN(C(=O)[C@H]3NC[C@@H]4C[C@@H]43)CC2)c2ccncc2n1-c1ccc(F)cc1C(=O)N(C(C)C)C(C)C (single isomer, unassigned)  UniProtKB P08172      0
1  CCN(C(=O)c1cc(F)ccc1-n1c(C)c(C(=O)C2CCN(C(=O)[C@@H]3CCC4(CC4)N3)CC2)c2ccncc21)C(C)C (single isomer, unassigned)  UniProtKB P08172      0
2  CC(C)c1ncccc1-c1cc(F)ccc1-n1cc(C(=O)C2CCN(C(=O)[C@H]3N[C@@H]4CC[C@H]3C4)CC2)c2ccncc21  UniProtKB P08172      1

Exercise: Is it the case that `CC(C)N(C(=O)c1cc(F)ccc1-n1cc(C(=O)C2CCN(C(=O)[C@@H]3CC4(CC4)CN3)CC2)c2ccncc21)C(C)C` has pKi reaching or exceeding 6?
Solution: 0

###

# Ki per record follows
target: muscarinic M2 receptor (Homo sapiens (Human), UniProt P08172)
Sequence (P08172 whole entry): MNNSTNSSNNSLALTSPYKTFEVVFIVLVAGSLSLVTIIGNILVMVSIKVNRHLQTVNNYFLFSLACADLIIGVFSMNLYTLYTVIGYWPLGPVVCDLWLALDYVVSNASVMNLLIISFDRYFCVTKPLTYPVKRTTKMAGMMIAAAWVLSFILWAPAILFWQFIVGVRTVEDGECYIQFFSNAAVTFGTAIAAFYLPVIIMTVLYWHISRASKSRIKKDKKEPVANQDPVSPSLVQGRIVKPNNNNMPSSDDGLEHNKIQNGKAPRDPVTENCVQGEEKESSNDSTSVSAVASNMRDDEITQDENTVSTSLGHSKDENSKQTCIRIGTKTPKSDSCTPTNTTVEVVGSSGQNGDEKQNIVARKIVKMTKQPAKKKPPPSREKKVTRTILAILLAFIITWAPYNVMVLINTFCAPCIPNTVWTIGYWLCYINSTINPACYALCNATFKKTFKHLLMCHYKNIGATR
Unit µM implied. Number only.

molecule	Ki, µM
CC(C)N(C(=O)c1cc(F)ccc1-n1cc(C(=O)C2CCN(C(=O)[C@H]3NC[C@@H]4CCC[C@@H]43)CC2)c2ccncc21)C(C)C	0.5
CC(C)n1nccc1-c1cc(F)ccc1-n1cc(C(=O)C2CCN(C(=O)[C@H]3N[C@@H]4CC[C@H]3C4)CC2)c2ccncc21	1.2
Cc1c(C(=O)C2CCN(C(=O)[C@@H]3CCC(C)(C)N3)CC2)c2ccncc2n1-c1ccc(F)cc1C(=O)N(C(C)C)C(C)C (single isomer, unassigned) [Example 56-1]	7.4

Exercise: Look up and report Ki, with muscarinic M2 receptor (Homo sapiens (Human), UniProt P08172) as system, for `CC(C)N(C(=O)c1cc(F)ccc1-n1cc(C(=O)C2CN(C(=O)[C@H]3N[C@@H]4CC[C@H]3C4)C2)c2ccnc(F)c21)C(C)C`
Solution: 13.6

###

System: UniProt P08172 | Read-out: Ki
Returns: string containing the number followed by the unit.

Use the examples below as a reference point.
compound	Ki
Cc1c(C(=O)C2CCN(C(=O)[C@@H]3CCC4(CC4)N3)CC2)c2ccncc2n1-c1ccc(F)cc1C(=O)N1[C@H](C)COC[C@H]1C (single isomer, unassigned) [Example 58-2]	4200 nM
C[C@@H]1CCC[C@H](C)N1C(=O)c1cc(F)ccc1-n1cc(C(=O)C2CCN(C(=O)[C@H]3N[C@@H]4CC[C@H]3C4)CC2)c2ccncc21 [Example 33]	300 nM

Next up:
Exercise: Look up and report Ki, with UniProt P08172 as system, for CC(C)N(C(=O)c1cc(F)ccc1-n1cc(C(=O)C2CCN(C(=O)[C@H]3N[C@@H]4CC[C@H]3C4)CC2)c2c(F)cncc21)C(C)C.O=CO [Example 44]
Solution: 2800 nM

###

assay: Human hepatocyte intrinsic clearance assay; assay type: in vitro ADME; conditions: human hepatocytes
attributeMeasured: HH CLint (μl/min/1E6)
Unit μl/min/1E6 implied. Number only.

Use the examples below as a reference point.
molecule	readoutUnit	number
C=C1C[C@@H]2CC[C@H]1[C@@H](C(=O)N1CCC(C(=O)c3cn(-c4ccc(F)cc4C(=O)N(C(C)C)C(C)C)c4cnccc34)CC1)N2	μl/min/1E6	1.6
CC(C)N(C(=O)c1cc(F)ccc1-n1cc(C(=O)C2CCN(C(=O)[C@@H]3CCC4(CC4)N3)CC2)c2ccncc21)C(C)C	μl/min/1E6	4.1
Cc1c(C(=O)C2CCN(C(=O)[C@H]3NC[C@@H]4C[C@@H]43)CC2)c2ccncc2n1-c1ccc(F)cc1-c1cnccc1C(C)C	μl/min/1E6	6.4
Cc1c(C(=O)C2CCN(C(=O)[C@H]3NC[C@@H]4C[C@@H]43)CC2)c2ccncc2n1-c1ccc(F)cc1C(=O)N(C(C)C)C(C)C (single isomer, unassigned) [Example 55-1]	μl/min/1E6	4.4

Exercise: Output HH CLint of Cc1c(C(=O)C2CCN(C(=O)[C@H]3NC[C@@H]4C[C@@H]43)CC2)c2ccncc2n1-c1ccc(F)cc1C(=O)N(C(C)C)C(C)C (single isomer, unassigned) [Example 55-2]
Solution: 4.2

Exercise: Output HH CLint of Cc1c(C(=O)[C@@H]2CCN(C(=O)[C@H]3NC[C@@H]4C[C@@H]43)[C@@H](C)C2)c2ccncc2n1-c1ccc(F)cc1C(=O)N(CC(F)(F)F)C(C)C (single isomer, unassigned)
Solution: 3.3

Exercise: Output HH CLint of CCN(C(=O)c1cc(F)ccc1-n1c(C)c(C(=O)[C@@H]2CCN(C(=O)[C@@H]3CCC4(CC4)N3)[C@@H](C)C2)c2ccncc21)C(C)C (single isomer, unassigned) [Example 52-1]
Solution: 4.1

Exercise: Output HH CLint of `CC(C)N(C(=O)c1cc(F)ccc1-n1cc(C(=O)C2CCN(C(=O)[C@H]3NC[C@@H]4C[C@@H]43)CC2)c2ccncc21)C(C)C`
Solution: 3.6

Exercise: Output HH CLint of Cc1c(C(=O)C2CCN(C(=O)[C@H]3NC[C@@H]4C[C@@H]43)CC2)c2ccncc2n1-c1ccc(F)cc1C(=O)N(CC(F)(F)F)C(C)C (single isomer, unassigned)
Solution: 1.9

###

target: muscarinic M2 receptor (Homo sapiens (Human)); assay: Muscarinic M2 receptor functional assay, antagonist effect (assay 2); conditions: cAMP, 1 μM acetylcholine
# IC50 per record follows
Returns: string containing the number followed by the unit.

>>> print(df.to_string())
                                   compound  result
0  CC(C)N(C(=O)c1cc(F)ccc1-n1cc(C(=O)C2CCN(C(=O)[C@H]3N[C@@H]4CC[C@H]3C4)CC2)c2ccncc21)C(C)C [Example 16]  1.1 µM
1  CC(C)N(C(=O)c1cc(F)ccc1-n1cc(C(=O)[C@H]2CCN(C(=O)[C@H]3N[C@@H]4CC[C@H]3C4)C2)c2ccncc21)C(C)C [Example 2]  5.2 µM

Exercise: Output IC50 of CCN(C(=O)c1cc(F)ccc1-n1c(C)c(C(=O)C2CCN(C(=O)[C@H]3NC[C@@H]4C[C@@H]43)CC2)c2ccncc21)C(C)C [Example 47]
Solution: 62.8 µM

###

# HLM CLint per record follows
test: Human liver microsomes (HLMs) intrinsic clearance assay; type: in vitro ADME; conditions: 1 mg/mL HLM, NADPH
Unit µL/min/mg implied. Number only.

Use the examples below as a reference point.
compound	readoutUnit	HLM CLint
Cc1c(C(=O)C2CCN(C(=O)[C@@H]3CCC4(CC4)N3)CC2)c2ccncc2n1-c1ccc(F)cc1C(=O)N1[C@H](C)COC[C@H]1C (single isomer, unassigned)	µL/min/mg	85
CCN(C(=O)c1cc(F)ccc1-n1c(C)c(C(=O)[C@@H]2CCN(C(=O)[C@@H]3CCC4(CC4)N3)[C@@H](C)C2)c2ccncc21)C(C)C (single isomer, unassigned) [Example 52-2]	µL/min/mg	150
CCN(C(=O)c1cc(F)ccc1-n1c(C)c(C(=O)[C@@H]2CCN(C(=O)[C@@H]3CCC4(CC4)N3)[C@@H](C)C2)c2ccncc21)C(C)C (single isomer, unassigned) [Example 52-3]	µL/min/mg	210

Exercise: Output HLM CLint of CCN(C(=O)c1cc(F)ccc1-n1c(C)c(C(=O)C2CCN(C(=O)[C@@H]3CCC4(CC4)N3)CC2)c2ccncc21)C(C)C (single isomer, unassigned) [Example 49-2]
Solution: 127

###

system: MV4;11 cells; assay: Proliferation assay, MV4;11 (CellTiter-Glo, 7 days); assay type: cell-based, human; conditions: Homo sapiens, MV4-11, 168 h, read-out: MV-4-11 IC50
attributeMeasured: pIC50
Would you please state pIC50, meaning minus log10 of the concentration in mol/L, as a bare number?

Use the examples below as a reference point.
compound	number
CC(C)c1ncsc1-c1cc(F)ccc1-n1cc(C(=O)C2CCN(C(=O)[C@H]3N[C@@H]4CC[C@H]3C4)CC2)c2ccncc21.O=CO	7.37
C[C@@H]1COC[C@H](C)N1C(=O)c1cc(F)ccc1-n1cc(C(=O)C2CCN(C(=O)[C@H]3N[C@@H]4CC[C@H]3C4)CC2)c2ccncc21	6.84
CC(C)N(C(=O)c1cc(F)ccc1-n1cc(C(=O)C2CN(C(=O)[C@H]3N[C@H]4C[C@@H]3[C@@H](F)C4)C2)c2ccncc21)C(C)C	7.14

Exercise: Output pIC50 of `CC(C)N(C(=O)c1cc(F)ccc1-n1cc(C(=O)C2CCN(C(=O)[C@@H]3CCC(C)(C)N3)CC2)c2ccncc21)C(C)C`
Solution: 7.46

Exercise: Output pIC50 of `CC(C)N(C(=O)c1cc(F)ccc1-n1cc(C(=O)[C@@H]2CCN(C[C@H]3CC[C@H](NS(C)(=O)=O)CC3)C2)c2ccncc21)C(C)C`
Solution: 6.88

Exercise: Output pIC50 of `CCN(C(=O)c1cc(F)ccc1-n1c(C)c(C(=O)C2CCN(C(=O)[C@H]3NC[C@@H]4C[C@@H]43)CC2)c2ccncc21)C(C)C`
Solution: 7.48

Exercise: Output pIC50 of Cc1c(C(=O)C2CCN(C(=O)[C@H]3NC[C@@H]4C[C@@H]43)CC2)c2ccncc2n1-c1ccc(F)cc1C(=O)N(CC(F)(F)F)C(C)C (single isomer, unassigned)
Solution: 7.54

Exercise: Output pIC50 of Cc1c(C(=O)C2CCN(C(=O)[C@@H]3CCC4(CC4)N3)CC2)c2ccncc2n1-c1ccc(F)cc1C(=O)N1[C@H](C)COC[C@H]1C (single isomer, unassigned)
Solution: 7.46

Exercise: Output pIC50 of Cc1c(C(=O)C2CCN(C(=O)[C@@H]3CCC(C)(C)N3)CC2)c2ccncc2n1-c1ccc(F)cc1C(=O)N(C(C)C)C(C)C (single isomer, unassigned)
Solution: 7.46

Exercise: Output pIC50 of `CC(C)N(C(=O)c1cc(F)ccc1-n1cc(C(=O)C2CCN(C(=O)[C@@H]3CC4(CC4)CN3)CC2)c2ccncc21)C(C)C`
Solution: 7.30

Exercise: Output pIC50 of `CC(C)N(C(=O)c1cc(F)ccc1-n1cc(C(=O)C2CCN(C(=O)[C@H]3NC[C@@H]4C[C@@H]43)CC2)c2ccncc21)C(C)C`
Solution: 7.60

Exercise: Output pIC50 of `C=C1C[C@@H]2CC[C@H]1[C@@H](C(=O)N1CCC(C(=O)c3cn(-c4ccc(F)cc4C(=O)N(C(C)C)C(C)C)c4cnccc34)CC1)N2`
Solution: 7.36

Exercise: Output pIC50 of `CC(C)N(C(=O)c1cc(F)ccc1-n1cc(C(=O)C2CCN(C(=O)[C@H]3NC[C@@H]4CCC[C@@H]43)CC2)c2ccncc21)C(C)C`
Solution: 7.57

Exercise: Output pIC50 of `CC(C)N(C(=O)c1cc(F)ccc1-n1cc(C(=O)C2CCN(C(=O)[C@@H]3CCC4(CC4)N3)CC2)c2ccncc21)C(C)C`
Solution: 7.70

Exercise: Output pIC50 of `Cc1c(C(=O)C2CCN(C(=O)[C@@H]3CC[C@@H](C)N3)CC2)c2ccncc2n1-c1ccc(F)cc1C(=O)N(C(C)C)C(C)C`
Solution: 6.94

Exercise: Output pIC50 of COCCN(C)CCC[C@H](C(C)C)N1CCC(C(=O)c2cn(-c3ccc(F)cc3C(=O)N(C(C)C)C(C)C)c3cnccc23)CC1 (racemic)
Solution: 7.70

Exercise: Output pIC50 of `CC(C)N(C(=O)c1cc(F)ccc1-n1cc(C(=O)[C@H]2CCN(C[C@H]3CC[C@H](NS(C)(=O)=O)CC3)C2)c2ccncc21)C(C)C`
Solution: 6.78

Exercise: Output pIC50 of `CC(C)(F)c1ncccc1-c1cc(F)ccc1-n1cc(C(=O)C2CN(C(=O)[C@H]3N[C@@H]4CC[C@H]3C4)C2)c2ccncc21`
Solution: 7.47
